- Tested on: OVCAR-4 ovarian
- ASSAY COMMENT: NCI-60 one-dose screen, 48 h (100 = growth as untreated, 0 = no growth, -100 = all killed)
- SETTINGS: 10 µM unless noted
This is part of a sample that, as a whole, favours compounds with a hit. Of some 83,000 tested, about 20% had one in any assay.
RECORDED METRIC: growth (%)
A number alone suffices; assume %.

Solved cases below.
>>> observed("N#[N+]c1cnc([O-])[nH]c1=O")
100
>>> observed("O=S(=O)(Cl)c1ccccc1 (tested in a mixture with another compound)")
106
>>> observed("NS(=O)(=O)c1nc[nH]c1[N+](=O)[O-]")
105
>>> observed("C=CC(=O)NC(O)C(Cl)(Cl)Cl (centres undefined)")
122

Query compound follows.
// growth value for CCC[CH2][Sn]([CH2]CCC)([CH2]CCC)[O]C(=O)c1ccc(Cl)cc1Cl : -67.7

* * *

- System: SN12C renal
- ASSAY COMMENT: NCI-60 one-dose screen, 48 h (100 = growth as untreated, 0 = no growth, -100 = all killed)
- SETTINGS: 10 µM unless noted
Compounds without any hit were thinned out: in the full panel of roughly 83,000, 20% have a hit. Active and inactive are the calls of the source. Rule for the calls: active = growth percent below 10; inactive = the rest.
RECORDED METRIC: growth

Reference set (5 entries):
>>> observed("C[C@]12CC[C@H](OC3OC(O)C(O)C(O)C3O)C=C1CCC1C2CC[C@]2(C)[C@@H](c3ccc(=O)oc3)CC[C@]12O (some centres undefined)")
"-37.7% (active)"
>>> observed("CC(C)CCC[C@@H](C)[C@H]1CC[C@H]2[C@@H]3CC=C4C[C@@H](OC(=O)Cc5ccc(N(CCCl)CCCl)cc5)CC[C@]4(C)[C@H]3CC[C@]12C")
"99.9% (inactive)"
>>> observed("Cc1nnc([S-])s1.[Au+].c1ccc([PH+](c2ccccc2)c2ccccc2)cc1")
"6.71% (active)"
>>> observed("CCC(C)[C@H]1O[C@]2(C=C[C@@H]1C)C[C@@H]1C[C@@H](C/C=C(\\C)[C@@H](OC3C[C@H](OC)C(O[C@H]4C[C@H](OC)[C@@H](O)[C@H](C)O4)[C@H](C)O3)[C@@H](C)/C=C/C=C3\\CO[C@@H]4[C@H](O)C(C)=C[C@@H](C(=O)O1)[C@]34O)O2 (some centres undefined)")
"1.84% (active)"
>>> observed("C/C(=C\\C(=O)O[C@H]1[C@@H]2[C@H](C)CC[C@H]2[C@]2(C)O[C@@]1(C1CCCCC1)C[C@H]2OC(=O)CO)c1ccccc1")
"7.85% (active)"

Looking up Cc1ccc(N)cc1[As]=[As]c1cc(N)ccc1C (centres undefined) , I see its growth listed as -86.5% (active)

Item: c1ccc(-c2ccc3ccccc3[o+]2)cc1 | growth: 90.2% (inactive)

The compound CO[C@@H]1[C@H](OC(=O)NC(=O)CCl)CC[C@]2(CO2)[C@H]1[C@@]1(C)O[C@@H]1CC=C(C)C showed growth equal to 72.3% (inactive)

Notebook: CC(C)C1c2ccc(O)cc2Oc2nc(N)c(C#N)c(N)c21 (centres undefined) , growth read as 103% (inactive)

C[C@]12CC[C@@H]3c4ccc(OC(=O)Cc5ccc(N(CCCl)CCCl)cc5)cc4CC[C@H]3[C@@H]1CC[C@@H]2OC(=O)Cc1ccc(N(CCCl)CCCl)cc1 yielded growth of 92.3% (inactive)
